- Assay Target: LK35.2-hPD-L1 cells / PE-labeled PD-1-Ig (Homo sapiens, UniProt Q9NZQ7)
- Construct: expressed in transfected cells; host or cells: LK35.2 mouse B cell line
- Sequence (Q9NZQ7 19-290): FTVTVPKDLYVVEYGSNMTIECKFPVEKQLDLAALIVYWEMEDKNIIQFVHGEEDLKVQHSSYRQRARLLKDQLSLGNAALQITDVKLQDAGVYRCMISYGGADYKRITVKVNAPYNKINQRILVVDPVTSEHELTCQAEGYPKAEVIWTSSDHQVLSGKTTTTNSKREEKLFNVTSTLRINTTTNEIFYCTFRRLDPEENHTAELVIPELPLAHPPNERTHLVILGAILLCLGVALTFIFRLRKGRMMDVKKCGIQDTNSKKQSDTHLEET
- Run Description: LK35.2-hPD-L1 cell binding high-content screening assay
- Assay type: cell-based
- Experimental Conditions: cell binding assay, cell line not given; cluster symbol; read-out: CBA IC50 cluster
Positions of bridges follow the written chain, without caps; N, C: chain ends. Non-standard residues stand in square brackets, D forms with d. Residues, ends and D or L forms follow the SMILES beside them. ξ: configuration not given here. NMeNle = CCCC[C@H](NC)C(=O)O; NMeA = CN[C@@H](C)C(=O)O; ξC = NC(CS)C(=O)O; Sar = CNCC(=O)O
Measured Endpoint: IC50

- Molecule: "CCCC[C@H]1C(=O)N(C)[C@@H](CCCC)C(=O)N[C@@H](CCCNC(=N)N)C(=O)NC(C(=O)NCC(N)=O)CSCC(=O)N[C@@H](Cc2ccc(O)cc2)C(=O)N(C)[C@@H](C)C(=O)N[C@@H](CC(N)=O)C(=O)N2CCC[C@H]2C(=O)N[C@@H](Cc2cnc[nH]2)C(=O)N[C@@H](CO)C(=O)N2CCC[C@H]2C(=O)N[C@@H](Cc2c[nH]c3ccccc23)C(=O)N[C@@H](CO)C(=O)N[C@@H](Cc2c[nH]c3ccccc23)C(=O)N1C (some centres unmarked) [Example 9067] ({CH2CO}-Y[NMeA]NPHSPWSW[NMeNle][NMeNle]R[ξC]G-NH2; thioether N-14)"
  IC50: "0.158 to 4.71 nM"

Prompt: Recorded IC50 of CCCC[C@H]1C(=O)N(C)[C@@H](CCCC)C(=O)N[C@@H](CC(N)=O)C(=O)N[C@H](C(=O)NCC(N)=O)CSCC(=O)N[C@@H](Cc2ccccc2)C(=O)N(C)[C@@H](C)C(=O)N[C@@H](CC(N)=O)C(=O)N2CCC[C@H]2C(=O)N[C@@H](Cc2cnc[nH]2)C(=O)N[C@@H](CC(C)C)C(=O)N(C)CC(=O)N[C@@H](Cc2c[nH]c3ccccc23)C(=O)N[C@@H](CO)C(=O)N[C@@H](Cc2c[nH]c3ccccc23)C(=O)N1C [Example 5014] ({CH2CO}-F[NMeA]NPHL[Sar]WSW[NMeNle][NMeNle]NCG-NH2; thioether N-14) , please.
Completion: 4.78 to 72.9 nM
